pKi data for human orexin-2 receptor (Homo sapiens, UniProt O43614) follow.
Give bare numbers, as −log10 of the molar value.

Example results:
- STRUCTURE_SMILES: "C[C@@H]1CC[C@@H](C#Cc2cccnc2)CN1C(=O)c1ccccc1-n1nccn1"
  SYSTEM_TESTED: "human orexin-2 receptor (Homo sapiens, UniProt O43614)"
  pKi: 8.15
- STRUCTURE_SMILES: "C[C@@H]1CC[C@@H](C#Cc2ccccc2CO)CN1C(=O)c1ccccc1-n1nccn1"
  SYSTEM_TESTED: "human orexin-2 receptor (Homo sapiens, UniProt O43614)"
  pKi: 9.28
- STRUCTURE_SMILES: "C[C@@H]1CC[C@@H](C#Cc2ccc(CO)cn2)CN1C(=O)c1ccccc1-n1nccn1"
  SYSTEM_TESTED: "human orexin-2 receptor (Homo sapiens, UniProt O43614)"
  pKi: 6.89
- STRUCTURE_SMILES: "C[C@@H]1CC[C@@H](C#Cc2cc(CO)ccn2)CN1C(=O)c1ccccc1-n1nccn1"
  SYSTEM_TESTED: "human orexin-2 receptor (Homo sapiens, UniProt O43614)"
  pKi: 7.38
- STRUCTURE_SMILES: "C[C@@H]1CC[C@@H](C#Cc2cnccc2O)CN1C(=O)c1ccccc1-n1nccn1"
  SYSTEM_TESTED: "human orexin-2 receptor (Homo sapiens, UniProt O43614)"
  pKi: 8.12

Alright, here's another compound for you.
Sure, the documented pKi for `C[C@@H]1CC[C@@H](C#Cc2ccnc(CO)c2)CN1C(=O)c1ccccc1-n1nccn1` is 7.60

###

Target or system human orexin-2 receptor (Homo sapiens, UniProt O43614): recorded Ki listed per item.
Numbers only, in µM.

- COMPOUND: "Cc1ccc(-n2nccn2)c(C(=O)N2CCCCC2C#Cc2ccc3ccccc3c2)c1 (centres unmarked)"
  MEASUREMENT: 2.83

Need Ki for each of these compounds.
1. Cc1nc(C(=O)N2CCCCC2C#Cc2ccc(F)cc2)c(-c2ccccc2)s1 (centres unmarked)
2. C[C@@H]1CC[C@@H](C#Cc2cccnc2O)CN1C(=O)c1ccccc1-n1nccn1
3. Cc1ccc(-n2nccn2)c(C(=O)N2CCCCC2C#Cc2ccc(F)cn2)c1 (centres unmarked)

Output:
[0.721, 0.024, 1]

###

- SYSTEM_TESTED: hOX1 (orexin-1 receptor) (Homo sapiens, UniProt O43613)
- Sequence (O43613 whole entry): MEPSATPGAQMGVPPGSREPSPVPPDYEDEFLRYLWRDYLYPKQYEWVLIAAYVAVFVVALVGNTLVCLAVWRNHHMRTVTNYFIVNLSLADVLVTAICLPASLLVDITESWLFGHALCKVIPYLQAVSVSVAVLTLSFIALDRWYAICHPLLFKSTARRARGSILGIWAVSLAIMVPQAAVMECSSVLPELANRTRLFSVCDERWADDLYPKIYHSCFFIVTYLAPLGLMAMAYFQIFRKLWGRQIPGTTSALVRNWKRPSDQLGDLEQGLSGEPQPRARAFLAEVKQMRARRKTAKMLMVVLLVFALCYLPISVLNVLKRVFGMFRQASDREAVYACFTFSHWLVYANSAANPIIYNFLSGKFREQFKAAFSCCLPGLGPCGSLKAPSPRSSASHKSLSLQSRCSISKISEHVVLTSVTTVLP
Flag rule - Ki less than 100 nM flags rule met; the remaining entries get rule not met.

- COMPOUND: "Cc1ccc(-n2nccn2)c(C(=O)N2CCCCC2C#Cc2ccc(F)cn2)c1 (stereo not shown)"
  QUALITATIVE_LABEL: "rule not met"
- COMPOUND: "C[C@@H]1CC[C@@H](C#Cc2ccncc2)CN1C(=O)c1ccccc1-n1nccn1"
  QUALITATIVE_LABEL: "rule not met"
- COMPOUND: "Cc1ccc(-n2nccn2)c(C(=O)N2CCCCC2C#Cc2ccc3ccccc3n2)c1 (stereo not shown)"
  QUALITATIVE_LABEL: "rule not met"
- COMPOUND: "C[C@@H]1CC[C@@H](C#Cc2ccnc(CO)c2)CN1C(=O)c1ccccc1-n1nccn1"
  QUALITATIVE_LABEL: "rule met"
- COMPOUND: "Cc1nc(C(=O)N2CCCCC2C#Cc2ccccc2)c(-c2ccccc2)s1 (stereo not shown)"
  QUALITATIVE_LABEL: "rule not met"
- COMPOUND: "Cc1nc(C(=O)N2CCCCC2C#Cc2ccc3ccccc3c2)c(-c2ccccc2)s1 (stereo not shown)"
  QUALITATIVE_LABEL: "rule not met"

Input: Field: below-cutoff. Rule: recorded Ki strictly less than 100 nM. Subject: C[C@@H]1CCC(C#Cc2ccccn2)CN1C(=O)c1ccccc1-n1nccn1 (stereo in doubt)
Output: rule met

Input: Is the reported Ki for `C[C@@H]1CC[C@@H](C#Cc2cnccc2O)CN1C(=O)c1ccccc1-n1nccn1` strictly below 100 nM?
Output: rule not met

Input: Dear colleague, could you confirm whether Ki of `C[C@@H]1CC[C@@H](C#Cc2cccnc2)CN1C(=O)c1ccccc1-n1nccn1` falls below 100 nM? Thanks.
Output: rule met

Input: Take the compound `C[C@@H]1CC[C@@H](C#Cc2cccnc2O)CN1C(=O)c1ccccc1-n1nccn1` and say whether its Ki is less than 100 nM.
Output: rule met

Input: For this compound, is Ki lower than 100 nM? `C[C@@H]1CC[C@@H](C#Cc2ccc(CO)nc2)CN1C(=O)c1ccccc1-n1nccn1`
Output: rule not met

Input: Answer whether the compound `C[C@@H]1CC[C@@H](C#Cc2ccc(CO)cn2)CN1C(=O)c1ccccc1-n1nccn1` has Ki strictly less than 100 nM
Output: rule not met

Input: Consider the compound Cc1nc(C(=O)N2CCCCC2C#Cc2cc3ccccc3cn2)c(-c2ccccc2)s1 (stereo not shown) . Is its Ki strictly less than 100 nM?
Output: rule not met

###

Target chain: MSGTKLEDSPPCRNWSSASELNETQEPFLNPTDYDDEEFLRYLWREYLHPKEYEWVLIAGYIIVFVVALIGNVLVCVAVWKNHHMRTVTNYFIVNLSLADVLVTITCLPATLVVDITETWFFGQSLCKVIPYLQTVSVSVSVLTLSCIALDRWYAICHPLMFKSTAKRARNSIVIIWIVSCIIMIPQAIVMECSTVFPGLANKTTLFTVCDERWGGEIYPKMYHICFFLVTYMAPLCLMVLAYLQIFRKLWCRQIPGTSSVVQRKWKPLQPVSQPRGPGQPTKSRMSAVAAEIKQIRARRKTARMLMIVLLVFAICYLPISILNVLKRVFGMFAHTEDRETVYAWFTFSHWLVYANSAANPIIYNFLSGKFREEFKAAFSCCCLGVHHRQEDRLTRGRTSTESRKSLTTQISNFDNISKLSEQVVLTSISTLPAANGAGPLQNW
pKi: −log10 of the molar value.
MEASUREMENT_TYPE: pKi

- COMPOUND: "Cc1nc(C(=O)N2CCCCC2C#Cc2ccc(F)cn2)c(-c2ccccc2)s1 (stereo not shown) [Example 22]"
  pKi: "< 5.64"
- COMPOUND: "C[C@@H]1CC[C@@H](C#Cc2ccc(CO)nc2)CN1C(=O)c1ccccc1-n1nccn1 [Example 7]"
  pKi: "~6.82"
- COMPOUND: "Cc1nc(C(=O)N2CCCCC2C#Cc2ccccc2)c(-c2ccccc2)s1 (stereo not shown) [Example 20]"
  pKi: "< 5.93"

Next item in the queue.
For Cc1ccc(-n2nccn2)c(C(=O)N2CCCCC2C#Cc2ccc3ccccc3n2)c1 (stereo not shown) [Example 17] the compound record lists pKi as < 5.35
